target: JNK3 (Homo sapiens, UniProt P53779); construct: purchased Eurofins Pharma Discovery (KINOMEscan service); test: KINOMEscan JNK3 binding (Kd); conditions: KINOMEscan, 12-point series, max 33 μM, duplicate
Sequence (P53779 whole entry): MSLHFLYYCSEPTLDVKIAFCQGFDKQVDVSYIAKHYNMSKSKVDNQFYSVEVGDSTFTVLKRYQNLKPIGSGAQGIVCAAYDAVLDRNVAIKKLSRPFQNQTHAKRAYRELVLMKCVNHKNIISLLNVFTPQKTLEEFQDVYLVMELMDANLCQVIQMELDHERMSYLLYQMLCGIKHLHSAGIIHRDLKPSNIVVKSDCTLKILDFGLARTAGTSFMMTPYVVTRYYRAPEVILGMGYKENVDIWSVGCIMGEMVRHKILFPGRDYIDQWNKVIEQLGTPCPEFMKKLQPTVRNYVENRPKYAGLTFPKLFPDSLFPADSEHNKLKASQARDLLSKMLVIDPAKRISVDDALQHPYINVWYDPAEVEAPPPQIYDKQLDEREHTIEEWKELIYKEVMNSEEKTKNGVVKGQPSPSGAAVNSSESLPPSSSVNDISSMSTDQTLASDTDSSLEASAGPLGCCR
MEASURED_QUANTITY: Kd (nM)
Report the value in nM with no unit label.

// query Any idea what Kd came out for O=c1c2ccc(F)cc2nc2n1-c1ccccc1C2=NO [Compound 4l] on JNK3 (Homo sapiens, UniProt P53779)?
// result 430

// query Any idea what Kd came out for O=c1c2ccccc2nc2n1-c1ccc(-c3ccccc3)cc1C2=NO [Compound 4e] on JNK3 (Homo sapiens, UniProt P53779)?
// result 340

// query Any idea what Kd came out for C#CCOC(=O)ON=C1c2ccccc2-n2c1nc1ccccc1c2=O [Compound 5d] on JNK3 (Homo sapiens, UniProt P53779)?
// result 320

// query Any idea what Kd came out for O=c1c2ccc(Br)cc2nc2n1-c1ccccc1C2=NO [Compound 4k] on JNK3 (Homo sapiens, UniProt P53779)?
// result 5700

// query Any idea what Kd came out for COc1ccc2c(c1)C(=NO)c1nc3ccccc3c(=O)n1-2 [Compound 4d] on JNK3 (Homo sapiens, UniProt P53779)?
// result 340

// query Any idea what Kd came out for O=c1c2cc(C(F)(F)F)ccc2nc2n1-c1ccccc1C2=NO [Compound 4i] on JNK3 (Homo sapiens, UniProt P53779)?
// result 11000

// query Any idea what Kd came out for O=C(ON=C1c2ccccc2-n2c1nc1ccccc1c2=O)c1ccc2c(c1)OCO2 [Compound 5e] on JNK3 (Homo sapiens, UniProt P53779)?
// result 270

// query Any idea what Kd came out for Cc1cccc2c1C(=NO)c1nc3ccccc3c(=O)n1-2 [Compound 4g] on JNK3 (Homo sapiens, UniProt P53779)?
// result 400

// query Any idea what Kd came out for COc1ccc2c(c1)-n1c(nc3cc(OC)ccc3c1=O)C2=NO [Compound 4r] on JNK3 (Homo sapiens, UniProt P53779)?
// result 3200

// query Any idea what Kd came out for Cc1ccc2c(c1)-n1c(nc3ccccc3c1=O)C2=NO [Compound 4h] on JNK3 (Homo sapiens, UniProt P53779)?
// result 230

// query Any idea what Kd came out for O=c1c2cc(Br)ccc2nc2n1-c1ccccc1C2=NO [Compound 4j] on JNK3 (Homo sapiens, UniProt P53779)?
// result 1900

// query Any idea what Kd came out for COC(=O)ON=C1c2ccccc2-n2c1nc1ccccc1c2=O [Compound 5c] on JNK3 (Homo sapiens, UniProt P53779)?
// result 700

// query Any idea what Kd came out for O=c1c2ccccc2nc2n1-c1ccc([N+](=O)[O-])cc1C2=NO [Compound 4a] on JNK3 (Homo sapiens, UniProt P53779)?
// result 860

// query Any idea what Kd came out for O=c1c2ccc([N+](=O)[O-])cc2nc2n1-c1ccccc1C2=NO [Compound 4m] on JNK3 (Homo sapiens, UniProt P53779)?
// result 6100

###

test: CellTiter-Glo cytotoxicity in MonoMac-6 cells; format: cell-based; settings: human, 24 h incubation
MEASURED_QUANTITY: IC50 at 24 h

// query Given the compound O=c1c2ccc([N+](=O)[O-])cc2nc2n1-c1ccccc1C2=NO , what is its reported IC50 at 24 h?
// result > 50 µM

// query Given the compound O=c1c2ccccc2nc2n1-c1ccccc1C2=NO [TRYP-Ox, tryptanthrin-6-oxime, reference compound] , what is its reported IC50 at 24 h?
// result > 50 µM

// query Given the compound O=c1c2ccccc2nc2n1-c1ccc(-c3ccccc3)cc1C2=NO , what is its reported IC50 at 24 h?
// result > 50 µM

// query Given the compound O=c1c2cc([N+](=O)[O-])ccc2nc2n1-c1ccccc1C2=NO , what is its reported IC50 at 24 h?
// result > 50 µM

Values compiled from paper PMC10304880.
